Assay: folding stability dG unfold (combined trypsin and chymotrypsin); higher = more stable
Entries and their folding stability dG unfold

Which value of folding stability dG unfold has been reported for SMDVVTEVTVKLPYRDASHHHHLNIKVTRTISSKDPSLSPEALPPEVLAEEAKKEAIEELKKKGIPEEFLSA [r9_516_JUSTAS] in the records? < -1 kcal/mol

Which value of folding stability dG unfold has been reported for SAGGSAGGSISPEAAKEGPLTIEVSWMHPDGRTEEEEFPIGQPIKIPPDFKDRPPQITSIRPRSAGGSAGGS [r12_161_TrROS] in the records? < -1 kcal/mol

Which value of folding stability dG unfold has been reported for SAGGSAGGSMRFVTIKVPGPDTTFTFDTDGDEALEAKLAELEKKHPEIKKENIEKLEVNPGPGSAGGSAGGS [r12_852_JUSTAS] in the records? < -1 kcal/mol

* * *

Entries and their folding stability dG unfold
Assay: folding stability dG unfold from chymotrypsin proteolysis; higher = more stable

>>> recorded_result("SAGGSANNWKPIGEFPFRHPDGWRVTVPIWRDPGEGNIKINVKYQGPNGPPSKQMKEWAKKLLDEISAGGSA [r15_529_TrROS]")
"0.654 kcal/mol"
>>> recorded_result("SAGGEEIEAEVVEVRTFTLENGFEVTTTLIRVDGKLILITSVKKTKNGKWEVVEVKELPLEELSPEELSAGG [r13_494_TrROS_Hall]")
"2.73 kcal/mol"

Which value of folding stability dG unfold has been reported for SAGGSAGGSAGMPLTVLGTEEIGDSTTVTTKDPTSDELYRKTYTNGAVSSTEIVPASELGSAGGSAGGSAGG [r11_19_JUSTAS] in the records? 0.282 kcal/mol

Which value of folding stability dG unfold has been reported for SAGMTLVAVNRETGEVNVIELDPEDPELVTVTYPNGEKETFPLAEIAERLGLPVSLLLNDYDIERIYGSSAG [r5_156_TrMRF] in the records? 1.38 kcal/mol

* * *

Assay: folding stability dG unfold (combined trypsin and chymotrypsin); higher = more stable
Entries and their folding stability dG unfold

Which value of folding stability dG unfold has been reported for SAGGGSKVIKVEYEKKDGGKVFIDDITDPGDSVEASIFNPKTGVKIPLPFDKLEELEDFIKEFVDKYSAGGS [r16_736_TrMRF] in the records? < -1 kcal/mol

Which value of folding stability dG unfold has been reported for SAGGSAGGPLRIEIEIKIEIFPFPDGWYLIRMTIKIKVYNPGEDGQPIAEYEITFYFIIPPGDFSAGGSAGG [r6_60_TrROS] in the records? > 6 kcal/mol

Which value of folding stability dG unfold has been reported for SAGGMVETTETVVEPGRIRVERRVTLPDGTEVEEVEEVPPAAGGVWEVRSRVRRGEGEEEVARREVAPSAGG [r13_728_JUSTAS] in the records? < -1 kcal/mol

* * *

Test: folding stability dG unfold from chymotrypsin proteolysis; higher = more stable
readout kind: folding stability dG unfold (kcal/mol)
Write it as a number; the unit kcal/mol goes unstated.

>>> recorded_result("SAGGSGMIKTETTVTITFPGGETVSFPATVTYDPETGKTEVEVNLPEAALAELKERAPDAEVNVLLSAGGSA [r2_409_JUSTAS]")
0.681
>>> recorded_result("SAGGSAGGSGSVEFETDLKDPNIRKAIEEALKEGKKTAVIPFPDGAEGRIVEVEGDKVRVEISSAGGSAGGS [r12_334_TrMRF]")
1.29
>>> recorded_result("SAGGSAGGSAGGSMKLNITVTLPDGTPITLTFPVDKIEEILKEAGLENISPELITKIEPISAGGSAGGSAGG [r7_745_JUSTAS]")
1.39

Which value of folding stability dG unfold has been reported for SAGGSAGGSAGLAEKLRDEIRESIKGPDGLEVPDDVELLSIDVPEDSAFVEVRFPADLPVSAGGSAGGSAGG [r17_519_TrMRF] in the records? 0.233

Which value of folding stability dG unfold has been reported for SAGGSAGGSAGGIKPGEKPVYKVKIYNEETGEELEVEFKTLEELEKLKIPGVKKIEVEKVSAGGSAGGSAGG [r7_793_TrROS_Hall] in the records? 1.35

Which value of folding stability dG unfold has been reported for SAGGSAGGGRAEILVEPVEPEPRARVVIRLEGSGRLVVFPVEEPLEPEHVEEAVEAAIKALEENSAGGSAGG [r6_330_TrMRF] in the records? 0.647

Which value of folding stability dG unfold has been reported for SAGGSAGGSAGGPANLNDEPVLLIPVSSELLKLIPAEKLVELAAKLASPNVKRIYVLAPESAGGSAGGSAGG [r7_487_TrMRF] in the records? 0.58

Which value of folding stability dG unfold has been reported for SAGGSAGGSPNTIEIWIQIPPGDPEKVEEIAKKLRDEGFKDIKVDEVHRNPDDSYYVEIKITVSAGGSAGGS [r12_91_TrROS] in the records? 1.12

Which value of folding stability dG unfold has been reported for SAGGSAGGSAGGVRPNPNGQYEVTVTIRNPGGGNKREKTINATPDEIEELQDQGFEIEPSAGGSAGGSAGGS [r10_749_TrROS] in the records? -1.08

* * *

Assay: folding stability dG unfold from chymotrypsin proteolysis; higher = more stable
Note: every record was labeled by where its folding stability dG unfold sits among LOW = under 0.4 kcal/mol, MID = from 0.4 kcal/mol up to 0.6 kcal/mol, HIGH = 0.6 kcal/mol and over

Take a look at these entries with their results.
>>> group("SAGGSAMPDDPLVLRANIPFVVVGPDGRPRLFRREILVPFASEEEAERFRRELEALGAEVEPVARASAGGSA [r15_117_TrMRF]")
"HIGH"
>>> group("SYKIHIMRPNGEMEEIPIKHPDGWKINIHRGPNKPFYIMVERYDPDGGPKPKPVIPIDSPEQALDKLKDASA [r9_942_TrROS]")
"LOW"
>>> group("SAGGEIERDPNGWIRMTYTLPGFGYKIEITFRVPDNGMMQIEDIDIEPIPPVPPPPPPKYDPNGEWKYSAGG [r13_646_TrROS]")
"HIGH"
>>> group("SAMKYVELKLTITVPKEKEEEIEKLKKALEKLGAEIVSVEVEYDEETEEVTVTVTIRIENLSEEELKKASAG [r14_956_TrROS_Hall]")
"HIGH"
>>> group("SAGGSAGGSAGRRVTINHNPENGFFRVKVYPPKGKSQVYPIPMENLEEIKKNLPPGVEIVSAGGSAGGSAGG [r11_569_TrROS]")
"LOW"

Which class holds SAGGSAGGSAGMTSTVTEVRPGSDSWTVTVTYSENSSTKTQTLTVPAGPTVRSGLPSVVSSAGGSAGGSAGG [r11_921_JUSTAS] ? LOW

Which class holds SAGGSAGGSAEVFIVKFSDPAKLKAFMEKLGLSYEKGDNPKITNPEEFLKNLPLVKNVVVTKKSAGGSAGGS [r12_571_JUSTAS] ? MID

Which class holds SAGGSAGGSAGGGSMVTVPVTTESTTTVPPGAPAVEAAPVDPATATVSTTTSSTSLVASSAGGSAGGSAGGS [r10_82_JUSTAS] ? MID

* * *

Test: folding stability dG unfold from chymotrypsin proteolysis; higher = more stable
readout kind: folding stability dG unfold (kcal/mol)
Write it as a number; the unit kcal/mol goes unstated.

// known answers, use as guide
>>> recorded_result("SAGGSAGGSAGGGPSSMVTVETKEELLTLPNGEKLIKTTTTTKTPTATTTTTTVLPAELLSAGGSAGGSAGG [r7_682_JUSTAS]")
0.561
>>> recorded_result("SAGGGIEREVAPDEVVEIPIVRIEGDVAREETIEIRLPAGARIEPSGDKIRLWFPEEGKVLEIPLTELSAGG [r13_275_TrMRF]")
-0.079
>>> recorded_result("SIVIRLPDGKPLMIQLTMYYPPDNDKIEIPVEIYDGGKPRTFEHEIPPGDNKPVTFSLHIPLPPGAYIKISA [r9_973_TrROS]")
2.45
>>> recorded_result("SAGSVTVTETKTEGDKETITMTRPETGETVEEKITKKNGKVKVTKTYYSPSGVKLGSSEKVLSESELLLSAG [r5_308_JUSTAS]")
-0.195
>>> recorded_result("SAKEIASGTFLLDNGATLTVTSIKYDPETGKVSIPVELTVYVPKIDPNDPNKPTIEPFTFKITFTFKVDSAG [r14_888_TrMRF]")
3.78

Which value of folding stability dG unfold has been reported for SAGGSAKWLPAEELADELADTLMQRHGYEIKNVDVEVIDPDEGYIRVNIEYEHPGGRHKHDIIIPVSAGGSA [r15_32_TrROS] in the records? 0.851

Which value of folding stability dG unfold has been reported for SAGGSAGGSAGGMMVNLKVTREKLPNGKYRVTFTLPNGEEVVVEVESEEEAEAAAKEIAASAGGSAGGSAGG [r11_955_JUSTAS] in the records? 4.23

Which value of folding stability dG unfold has been reported for SMEEVKEALRKAGIDVPVTKIETEKLPDGSYKVTLTVGDKKVLTVYVPPEPPEPPVFYRTPPNGSREPVLSA [r9_442_JUSTAS] in the records? 0.528

Which value of folding stability dG unfold has been reported for SAGMTITVKPGEKVKVTIKVEVFDENGKLIKKEEKEVEITVKEGDEITIKIKLDKPVKVKIEIKIEKKSAGG [r19_295_TrROS_Hall] in the records? 2.01
